Data provenance: the RNAGym collection of RNA variant scans (doi:10.1126/science.aae0568)

B1: tRNA (parent)
chain: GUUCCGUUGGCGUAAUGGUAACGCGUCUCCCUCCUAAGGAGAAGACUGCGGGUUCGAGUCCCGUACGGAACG

Variants of: B1
protocol-notes: yeast fitness relative to wild type (ratio to wild type); higher = fitter; tRNA-Arg(CCU), competitive growth, 37 C, YPD
Variants at the floor of the assay were thinned out.
experimental-readout: yeast fitness
Answers are plain numbers.

Study these solved cases before continuing.
[[record]]
mutation_key = "C4A A42G C60G"
experimental_readout = "yeast fitness"
measured_result = 0.53

[[record]]
mutation_key = "C49U G58A A65G"
experimental_readout = "yeast fitness"
measured_result = 1

[[record]]
mutation_key = "C33U A36C U64C"
experimental_readout = "yeast fitness"
measured_result = 0.648

[[record]]
mutation_key = "C11G A21U C30A G44A G52C A65U"
experimental_readout = "yeast fitness"
measured_result = 0.507

[[record]]
mutation_key = "U2A C4A C5G A36G"
experimental_readout = "yeast fitness"
measured_result = 0.524


Hello, I would appreciate it if you could give yeast fitness for each entry below.
1. G17C C24U C46G C62G
2. U3A G38C G41C A65G
3. C5A A14G C31A C55A C61A G63A
4. U3A C5A A45C G50C U64C

Output:
0.572
0.78
0.536
0.54
